Tested on: blackgrass (Alopecurus myosuroides)
method-notes: Test A postemergence, blackgrass
Format: in vivo
condition-set: 500 g ai/ha, 0 to 100 scale, 0 no effect, 100 complete control
Quick list: Plant response rating, Blackgrass per entry.
Please reply with the number alone, leaving off any unit.

Worked examples follow.
Nc1nc(N[C@H](c2coc3ccccc23)C2CC2)ncc1C(F)(F)F ... 0
Nc1nc(NC(c2cc3ccccc3o2)C2CC2)ncc1C(F)(F)F (centres unmarked) [Compound 88] ... 50
C[C@H](Nc1ncc(C(F)(F)F)c(N)n1)c1coc2ccc(F)cc12 ... 0
Nc1nc(N[C@@H](c2cc3ccccc3s2)C2CC2)ncc1C(F)(F)F ... 0
CC(Nc1ncc(C(F)(F)F)c(N)n1)c1cc2c(Cl)cccc2o1 (centres unmarked) ... 70
CC(=O)c1cnc(NC(C)c2cc3ccccc3s2)nc1N (centres unmarked) ... 10
Cc1ccc2c([C@H](Nc3ncc(C(F)(F)F)c(N)n3)C3CC3)coc2c1 ... 60
Cc1ccc2c([C@@H](Nc3ncc(C(F)(F)F)c(N)n3)C3CC3)coc2c1 ... 0

stdin: // lookup Plant response rating, Blackgrass for `C[C@H](Nc1ncc(C(F)(F)F)c(N)n1)c1cc2c(F)cccc2o1`
stdout: 0

stdin: Which value of Plant response rating, Blackgrass has been reported for `C[C@@H](Nc1nc(N)c(C(F)(F)F)c(C(F)(F)F)n1)c1cc2ccccc2s1` in the records?
stdout: 0

stdin: So what's the measured Plant response rating, Blackgrass for this one? CC(Nc1nc(N)c(C(F)(F)F)c(C(F)(F)F)n1)C1Cc2ccccc2C1 (racemic)
stdout: 30

stdin: Returns the measured Plant response rating, Blackgrass for the input molecule. Input: Nc1nc(NC(c2coc3ccccc23)C2CC2)ncc1C(F)(F)F (racemic)
stdout: 70

stdin: Name the reported Plant response rating, Blackgrass value associated with the molecule Nc1nc(NC(c2cc3ccccc3o2)C2CC2)ncc1C(F)(F)F (centres unmarked) [Compound 89]
stdout: 0

stdin: Return reported Plant response rating, Blackgrass; argument: `C[C@@H](Nc1ncc(C(F)(F)F)c(N)n1)c1cc2ccccc2n1C`
stdout: 0

stdin: I would be grateful if you could share the reported Plant response rating, Blackgrass for `C[C@@H](Nc1nc(N)c(C(F)(F)F)c(C(F)(F)F)n1)c1cc2ccccc2o1` .
stdout: 0

stdin: Look up Plant response rating, Blackgrass for this molecule: Cc1cccc2oc(C(C)Nc3ncc(C(F)(F)F)c(N)n3)cc12 (centres unmarked)
stdout: 70

stdin: Dear colleague, I am looking for the recorded Plant response rating, Blackgrass of the following molecule: `CC[C@H](Nc1ncc(C(F)(F)F)c(N)n1)c1cc2ccc(F)cc2o1`
stdout: 0

stdin: What measured Plant response rating, Blackgrass goes with `CC[C@@H](Nc1ncc(C(F)(F)F)c(N)n1)c1cc2ccc(F)cc2o1` ?
stdout: 20

###

Tested on: barnyardgrass (Echinochloa crus-galli)
method-notes: Test A postemergence, barnyardgrass
Assay type: in vivo
condition-set: 500 g ai/ha, 0 to 100 scale, 0 no effect, 100 complete control
measurement-type: Plant response rating, Barnyardgrass

Nc1nc(N[C@H](c2coc3ccccc23)C2CC2)ncc1C(F)(F)F [Compound 78] ... 0
CC(Nc1ncc(C(F)(F)F)c(N)n1)c1cc2c(Br)cccc2o1 (stereo not shown) [Compound 102] ... 70
CC(Nc1ncc(C(F)(F)F)c(N)n1)c1cc2ccc(F)c(F)c2s1 (stereo not shown) [Compound 86] ... 50

stdin: Name the recorded Plant response rating, Barnyardgrass for CC[C@@H](Nc1ncc(C(F)(F)F)c(N)n1)c1cc2ccc(F)cc2o1 [Compound 63] .
stdout: 60

stdin: Requested field: Plant response rating, Barnyardgrass. Item: C[C@@H](Nc1nc(N)c(C(F)(F)F)c(C(F)(F)F)n1)c1cc2ccccc2s1 [Compound 59]
stdout: 0

stdin: Any idea what its Plant response rating, Barnyardgrass is? The molecule is C[C@H](Nc1ncc(C(F)(F)F)c(N)n1)c1coc2ccc(F)cc12 [Compound 56]
stdout: 30

The measured values listed here are drawn from patent US20220119354A1.
